Target: T1, Human CD228 protein (human, UniProt P08582 20-708, limits assumed)
T1 construct: Recombinant protein made in CHO cells, purified over a Ni column; The printed entry begins with the leader (MRGPSG...) and ends with ten His; also called hCD228; CD228-His protein
T1 sequence: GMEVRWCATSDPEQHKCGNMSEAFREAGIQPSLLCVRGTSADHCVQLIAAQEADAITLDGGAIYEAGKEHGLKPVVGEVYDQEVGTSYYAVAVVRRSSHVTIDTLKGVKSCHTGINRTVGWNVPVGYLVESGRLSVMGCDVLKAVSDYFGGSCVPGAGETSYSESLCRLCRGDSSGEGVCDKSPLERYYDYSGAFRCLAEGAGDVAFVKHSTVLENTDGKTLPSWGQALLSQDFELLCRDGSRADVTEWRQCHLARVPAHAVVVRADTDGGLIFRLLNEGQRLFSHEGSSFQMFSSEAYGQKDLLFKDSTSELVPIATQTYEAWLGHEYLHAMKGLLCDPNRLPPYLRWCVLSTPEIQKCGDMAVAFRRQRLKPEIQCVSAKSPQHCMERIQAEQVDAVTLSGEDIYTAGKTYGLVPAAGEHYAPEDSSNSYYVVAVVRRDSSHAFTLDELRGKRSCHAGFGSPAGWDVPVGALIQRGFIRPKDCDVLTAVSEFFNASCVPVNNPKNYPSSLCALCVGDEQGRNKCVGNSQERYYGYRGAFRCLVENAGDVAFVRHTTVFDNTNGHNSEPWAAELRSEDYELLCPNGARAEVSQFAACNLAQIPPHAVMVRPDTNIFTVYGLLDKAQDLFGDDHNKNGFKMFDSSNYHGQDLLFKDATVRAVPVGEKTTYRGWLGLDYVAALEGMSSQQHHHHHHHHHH
Experiment: Octet competition on His-chip CD228; competitor: CA67
measure: Octet response value
Respond with the number and no other words.

Take a look at these entries with their results.
>  <binder>
CA13 (antibody, human IgG1, kappa, V domains shown, Intact IgG1 from fully human antibody-transgenic mice) VH: EVQLVESGGGVVQPGRSLRLSCAASGFTFSSYAMHWVRQAPGKGLEWVAVISYDGSNKYYADSVKGRFTISRDNSKNTLFLQMNSLRAEDTAVYYCARDVYHYGSRSPYYYGMDVWGQGTTVTVSS VL: DIVMTQSPSSLSASVGDRVTITCRASQGISNYLAWFQQKPGKVPKLLIYAASTLQSGVPSRFSGSGSGTDFTLTISSLQPEDVATYYCQKYNSAPFTFGPGTKVDIKR

>  <measValue>
-0.0021

$$$$
>  <binder>
CA67 (antibody, human IgG1, kappa, V domains shown, Intact IgG1) VH: EVQLVESGGGVVQPGRSLRLSCAASGFTFSSYAMHWVRQAPGKGLEWVAVISYDGSNKYYADSVKGRFTISRDNSKNTLYLQMNSLRAEDTAVYYCARDVYHYGSRSPYYYGMDVWGQGTTVTVSS VL: DIQMTQSPSSLSASVGDRVTITCRASQAISNYLAWYQQKPGKVPKLLIYAASTLHPGVPSRFSGSGSGTDFTLTISSLQPEDVATYYCQKYNSAPFTFGPGTKVDIKR

>  <measValue>
-0.007

$$$$

Now let's try a different one.
Quick one: Octet response value of CA149 (antibody, human IgG1, kappa, V domains shown, Intact IgG1; also called CA149 antibody) VH: EVQLVESGGGVVQPGRSLRLSCAASGFTFSSYAMHWVRQAPGKGLEWVAVISFDGSNKYYTDSVKGRFTISRDNSKNTLYLQMNSLRAEDTAVYYCAREVPYYYGSGPFDYWGQGTLVTVSS VL: EIVLTQSPATLSVSPGERATLSCRASQSVSSNLAWYQQKPGQAPRHLIDGASSRASGIPDRFSGSGSGTDFTLTISRLEPEDFAVYYCQQYGSSPPFTFGPGTKVDIKR ? 0.0087
